molecular target: UniProt:P62937; assay: The compound was evaluated for its binding affinity against Human Cyclophilin hCyp-18 Peptidyl-prolyl isomerase
Sequence (P62937 whole entry, looked up): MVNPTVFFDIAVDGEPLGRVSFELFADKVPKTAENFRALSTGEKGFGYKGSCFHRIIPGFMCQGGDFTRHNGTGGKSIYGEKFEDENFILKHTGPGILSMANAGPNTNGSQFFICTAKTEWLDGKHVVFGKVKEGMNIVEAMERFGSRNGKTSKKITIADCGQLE
pKd: −log10 of the molar value. *1 amine or outer side, *2 acyl side, *3 side chain or, on linkers, in order; H or OH if unused. Where a SMILES comes first, the peptide text is derived from it. The star is where a group is joined. pNA = O=[N+]([O-])c1ccc(N*)cc1; Suc = O=C(CCC(=O)[*:2])[*:1]
pKd below 4 gives NOT MET; pKd at or above it gives MET.

molecule="C[C@H](NC(=O)CCC(=O)O)C(=O)N[C@@H](C)C(=O)N1CCC[C@H]1C(=O)N[C@@H](Cc1ccccc1)C(=O)Nc1ccc([N+](=O)[O-])cc1 (Suc-AAPF-pNA)" class="NOT MET"
molecule="CC(=O)N[C@@H](C)C(=O)N[C@@H](C)C(=O)N1CCC[C@H]1C(=O)N[C@@H](Cc1ccccc1)C(=O)Nc1ccc([N+](=O)[O-])cc1 (Ac-AAPF-pNA)" class="NOT MET"
molecule="CCOP(=O)(CNC(=O)[C@H](C)NC(C)=O)N1CCCC1C(=O)N[C@H](CNc1ccc([N+](=O)[O-])cc1)Cc1ccccc1 (stereo partly specified)" class="NOT MET"
molecule="CCOP(=O)(CNC(=O)[C@H](C)NC(=O)CCC(=O)O)N1CCCC1C(=O)N[C@@H](Cc1ccccc1)C(=O)Nc1ccc([N+](=O)[O-])cc1 (stereo partly specified)" class=MET

----------
target: Peptidyl-prolyl cis-trans isomerase A, cyclophilin A (Homo sapiens); assay: The compound was evaluated for its binding affinity against Human Cyclophilin hCyp-18 Peptidyl-prolyl isomerase
*1 amine or outer side, *2 acyl side, *3 side chain or, on linkers, in order; H or OH if unused. Where a SMILES comes first, the peptide text is derived from it. The star is where a group is joined. pNA = O=[N+]([O-])c1ccc(N*)cc1; Suc = O=C(CCC(=O)[*:2])[*:1]
endpointName: Kd (µM)

compound="C[C@H](NC(=O)CCC(=O)O)C(=O)NCC(=O)N1CCC[C@H]1C(=O)N[C@@H](Cc1ccccc1)C(=O)Nc1ccc([N+](=O)[O-])cc1 (Suc-AGPF-pNA)" unitlabel=µM readoutnumber=140
